System: LoVo
Assay: SRB colorimetric assay of cell growth and viability, LoVo
Type: cell-based, human
Conditions: 48 hours exposure
Method: The finality of this assay is to interrupt the growth of a “in vitro” tumor cell culture by means a continued exhibition of the cells to the sample to be testing. […] Cells are seeded in 96 well microtiter plates, at 5×10^3 cells per well in aliquots of 195 μL medium, and they are allowed to attach to the plate surface by growing in drug free medium for 18 hours. […] Optical densities are read on a automated spectrophotometric plate reader at a single wavelength of 490 nm. […]
Where a SMILES comes first, the peptide text is derived from it. Bridges are numbered along the chain shown (N, C = ends). [ ]: non-standard residue; d: D form. The star is where a group is joined. d(aIle) = CC[C@H](C)[C@@H](N)C(=O)O; d(aThr) = C[C@@H](O)[C@@H](N)C(=O)O; Hexanoyl(5-Me) = CC(C)CCCC(=O)*; Myristoyl = CCCCCCCCCCCCCC(=O)*; Orn = NCCC[C@H](N)C(=O)O; Dhb = C/C=C(\N)C(=O)O
measured.quantity: GI50 (µM)
Please state the figure in µM; there is no need to write the unit.

1) C/C=C1\NC(=O)[C@H](Cc2ccccc2)NC(=O)[C@@H](C(C)C)NC(=O)[C@@H]([C@@H](C)CC)NC(=O)[C@H](NC(=O)[C@H](NC(=O)[C@H](CCCN)NC(=O)[C@H]2CCCN2C(=O)[C@H](NC(=O)CCCCCCCCCCCCC)C(C)C)[C@@H](C)CC)[C@@H](C)OC(=O)[C@H](C(C)C)NC1=O [Compound 32] (Myristoyl-[dV][dP][Orn][d(aIle)][d(aThr)][d(aIle)][dV]F[Dhb]V; ester 5-C)    7.83

Let us examine a further case.
Exercise: GI50 for C/C=C1\NC(=O)[C@H](Cc2ccccc2)NC(=O)[C@@H](C(C)C)NC(=O)[C@@H]([C@@H](C)CC)NC(=O)[C@H](NC(=O)[C@H](NC(=O)[C@H](CCCN)NC(=O)[C@H]2CCCN2C(=O)[C@H](NC(=O)[C@@H]2CCCN2C(=O)[C@@H](NC(=O)[C@H](NC(=O)CCCC(C)C)C(C)C)[C@@H](C)O)C(C)C)[C@@H](C)CC)[C@@H](C)OC(=O)[C@H](C(C)C)NC1=O [Compound 47, [Pro^11]-KF] ({Hexanoyl(5-Me)}-[dV]TP[dV][dP][Orn][d(aIle)][d(aThr)][d(aIle)][dV]F[Dhb]V; ester 8-C) ?
Solution: 5.85

###

System: SK-BR-3
Assay: SRB colorimetric assay of cell growth and viability, SK-BR-3
Assay type: cell-based, human
Conditions: 48 hours exposure, SRB
measured.quantity: LC50 (nM)
Please state the figure in nM; there is no need to write the unit.

1) C/C=C1\NC(=O)[C@H](Cc2ccccc2)NC(=O)[C@@H](C(C)C)NC(=O)[C@@H]([C@@H](C)CC)NC(=O)[C@H](NC(=O)[C@H](NC(=O)[C@H](CCCN)NC(=O)[C@H]2CCCN2C(=O)[C@H](NC(=O)[C@@H](NC(=O)[C@@H](NC(=O)[C@H](NC(=O)CC[C@@H](C)CC)C(C)C)[C@@H](C)OC(=O)C(F)(F)F)C(C)C)C(C)C)[C@@H](C)CC)[C@@H](C)OC(=O)[C@H](C(C)C)NC1=O [Compound 94]    625
2) C/C=C1\NC(=O)[C@H](Cc2ccc(I)cc2)NC(=O)[C@@H](C(C)C)NC(=O)[C@@H]([C@@H](C)CC)NC(=O)[C@H](NC(=O)[C@H](NC(=O)[C@H](CCCN)NC(=O)[C@H]2CCCN2C(=O)[C@H](NC(=O)[C@@H](NC(=O)[C@@H](NC(=O)[C@H](NC(=O)CC[C@@H](C)CC)C(C)C)[C@@H](C)O)C(C)C)C(C)C)[C@@H](C)CC)[C@@H](C)OC(=O)[C@H](C(C)C)NC1=O [Compound 72, [Phe(4-I)^3, (4S)-MeHex^14]-KF]    416

Let us examine a further case.
Exercise: LC50 for C/C=C1\NC(=O)[C@H](Cc2c(F)c(F)c(F)c(F)c2F)NC(=O)[C@@H](C(C)C)NC(=O)[C@@H]([C@@H](C)CC)NC(=O)[C@H](NC(=O)[C@H](NC(=O)[C@H](CCCN)NC(=O)[C@H]2CCCN2C(=O)[C@H](NC(=O)[C@@H](NC(=O)[C@@H](NC(=O)[C@H](NC(=O)CC[C@@H](C)CC)C(C)C)[C@@H](C)O)C(C)C)C(C)C)[C@@H](C)CC)[C@@H](C)OC(=O)[C@H](C(C)C)NC1=O [Compound 71, [Phe(F5)^3, (4S)-MeHex^14]-KF] ?
Solution: 554
